Attribution: ChEMBL document CHEMBL1134226

biological target: Protein kinase C eta type (Homo sapiens); test: Inhibition of [3H]phorbol-12,13-dibutyrate (PDBu) binding to Protein kinase C eta C1b domain
Sequence (P24723 whole entry, the tested form may be a part): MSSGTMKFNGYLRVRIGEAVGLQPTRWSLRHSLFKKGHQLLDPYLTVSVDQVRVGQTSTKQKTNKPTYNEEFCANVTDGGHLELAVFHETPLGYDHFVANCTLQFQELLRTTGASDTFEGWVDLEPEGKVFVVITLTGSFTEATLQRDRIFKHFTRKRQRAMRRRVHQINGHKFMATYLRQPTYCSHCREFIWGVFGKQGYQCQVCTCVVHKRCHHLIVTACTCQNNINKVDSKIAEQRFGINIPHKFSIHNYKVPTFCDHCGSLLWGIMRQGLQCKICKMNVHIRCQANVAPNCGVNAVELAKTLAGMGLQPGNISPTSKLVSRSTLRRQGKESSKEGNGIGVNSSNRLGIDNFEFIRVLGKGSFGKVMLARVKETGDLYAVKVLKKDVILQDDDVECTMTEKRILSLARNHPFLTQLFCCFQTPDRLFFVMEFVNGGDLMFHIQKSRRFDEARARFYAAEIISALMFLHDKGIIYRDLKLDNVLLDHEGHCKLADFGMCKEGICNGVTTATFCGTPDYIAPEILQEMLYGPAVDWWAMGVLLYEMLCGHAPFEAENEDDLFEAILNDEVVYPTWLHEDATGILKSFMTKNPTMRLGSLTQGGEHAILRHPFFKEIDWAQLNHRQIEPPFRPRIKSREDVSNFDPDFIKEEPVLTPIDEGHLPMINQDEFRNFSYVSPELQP
pKi: −log10 of the molar value.
MEASURED_PARAMETER: pKi

1: CCCCCCCCCCc1ccc2c(c1)C[C@@H](CO)OC(=O)[C@H](C(C)C)N2C
2: CCCCCCCCCCc1ccc2c(c1)C[C@@H](CO)NC(=O)[C@H](C(C)C)N2C
Between the entries labelled 1 and 2 , which has a larger pKi value on record? Lab note: record the label of whichever item you select.
2

---

target: Protein kinase C delta type (Homo sapiens, UniProt Q05655); test: Inhibition of [3H]phorbol-12,13-dibutyrate (PDBu) binding to Protein kinase C delta C1a domain
Sequence (Q05655 whole entry, the tested form may be a part): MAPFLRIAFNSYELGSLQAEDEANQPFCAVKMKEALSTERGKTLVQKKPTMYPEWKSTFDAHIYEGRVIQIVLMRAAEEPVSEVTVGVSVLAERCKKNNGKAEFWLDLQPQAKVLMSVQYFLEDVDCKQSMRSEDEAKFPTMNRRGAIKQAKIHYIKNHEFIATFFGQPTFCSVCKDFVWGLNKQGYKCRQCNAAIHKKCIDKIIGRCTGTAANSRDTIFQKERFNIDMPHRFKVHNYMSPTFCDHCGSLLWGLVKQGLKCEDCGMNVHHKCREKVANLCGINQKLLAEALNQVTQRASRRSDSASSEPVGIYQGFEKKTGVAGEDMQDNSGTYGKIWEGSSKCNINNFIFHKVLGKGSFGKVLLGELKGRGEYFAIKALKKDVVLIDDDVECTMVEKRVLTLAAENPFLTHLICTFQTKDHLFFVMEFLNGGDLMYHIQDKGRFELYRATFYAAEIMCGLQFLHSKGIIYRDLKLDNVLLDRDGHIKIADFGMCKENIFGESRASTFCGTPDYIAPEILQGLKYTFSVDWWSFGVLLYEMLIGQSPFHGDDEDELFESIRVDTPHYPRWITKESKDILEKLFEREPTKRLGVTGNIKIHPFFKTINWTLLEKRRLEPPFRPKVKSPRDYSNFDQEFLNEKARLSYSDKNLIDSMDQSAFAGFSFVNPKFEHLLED
MEASURED_PARAMETER: Ki (µM)

a: CCCCCCCCCCc1ccc2c(c1)C[C@@H](CO)NC(=O)[C@H](C(C)C)N2C
b: CCCCCCCCCCc1ccc2c(c1)C[C@@H](CO)OC(=O)[C@H](C(C)C)N2C
Between the entries labelled a and b , which has a larger Ki value on record? Lab note: record the label of whichever item you select.
b

---

target: Protein kinase C delta type (Homo sapiens, UniProt Q05655); assay: Inhibition of [3H]phorbol-12,13-dibutyrate (PDBu) binding to Protein kinase C delta C1b domain
MEASURED_PARAMETER: Ki (nM)

I: CCCCCCCCCCc1ccc2c(c1)C[C@@H](CO)OC(=O)[C@H](C(C)C)N2C
II: CCCCCCCCCCc1ccc2c(c1)C[C@@H](CO)NC(=O)[C@H](C(C)C)N2C
Compare Ki: is it lower for I or for II ? Lab note: record the label of whichever item you select.
II

---

target: Protein kinase C epsilon type (Homo sapiens); test: Inhibition of [3H]phorbol-12,13-dibutyrate (PDBu) binding to Protein kinase C epsilon C1a domain
MEASURED_PARAMETER: Ki (µM)
Report the figure in µM without appending any unit label.

// fetch Protein kinase C epsilon type (Homo sapiens) Ki for CCCCCCCCCCc1ccc2c(c1)C[C@@H](CO)NC(=O)[C@H](C(C)C)N2C
8.36

---

biological target: Protein kinase C alpha type (Homo sapiens, UniProt P17252); assay: Inhibition of [3H]phorbol-12,13-dibutyrate (PDBu) binding to Protein kinase C alpha C1b domain
MEASURED_PARAMETER: pKi
The value called pKi is obtained by taking minus log10 of the concentration in mol/L.

Tell me the measured pKi of CCCCCCCCCCc1ccc2c(c1)C[C@@H](CO)NC(=O)[C@H](C(C)C)N2C , please.
5.33

---

target: Protein kinase C beta type (Homo sapiens); test: Inhibition of [3H]phorbol-12,13-dibutyrate (PDBu) binding to Protein kinase C beta C1b domain
Sequence (P05771 whole entry, looked up, the tested form may be a part): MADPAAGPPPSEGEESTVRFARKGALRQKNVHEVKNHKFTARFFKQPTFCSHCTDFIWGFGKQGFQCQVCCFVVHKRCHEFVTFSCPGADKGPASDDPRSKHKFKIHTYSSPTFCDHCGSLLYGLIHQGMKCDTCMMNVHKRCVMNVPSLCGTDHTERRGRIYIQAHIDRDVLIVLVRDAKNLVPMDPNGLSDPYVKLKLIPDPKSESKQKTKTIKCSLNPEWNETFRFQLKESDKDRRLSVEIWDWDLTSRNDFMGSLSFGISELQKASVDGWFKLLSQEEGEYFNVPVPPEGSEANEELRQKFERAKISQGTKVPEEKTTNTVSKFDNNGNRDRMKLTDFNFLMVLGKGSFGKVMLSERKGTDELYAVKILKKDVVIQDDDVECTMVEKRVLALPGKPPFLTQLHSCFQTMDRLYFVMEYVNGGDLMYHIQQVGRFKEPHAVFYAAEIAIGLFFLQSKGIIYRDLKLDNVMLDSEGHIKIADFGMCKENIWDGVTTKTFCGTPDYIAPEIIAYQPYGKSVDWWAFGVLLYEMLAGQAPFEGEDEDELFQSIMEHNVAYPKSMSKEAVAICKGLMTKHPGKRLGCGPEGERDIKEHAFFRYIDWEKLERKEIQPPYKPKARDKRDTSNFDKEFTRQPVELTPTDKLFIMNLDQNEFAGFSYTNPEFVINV
pKi: −log10 of the molar value.
MEASURED_PARAMETER: pKi

P: CCCCCCCCCCc1ccc2c(c1)C[C@@H](CO)NC(=O)[C@H](C(C)C)N2C
Q: CCCCCCCCCCc1ccc2c(c1)C[C@@H](CO)OC(=O)[C@H](C(C)C)N2C
Compare pKi: is it lower for P or for Q ? Lab note: record the label of whichever item you select.
Q

---

target: Protein kinase C gamma type (Homo sapiens); assay: Inhibition of [3H]phorbol-12,13-dibutyrate (PDBu) binding to Protein kinase C gamma C1a domain
pKi: −log10 of the molar value.
MEASURED_PARAMETER: pKi

I: CCCCCCCCCCc1ccc2c(c1)C[C@@H](CO)NC(=O)[C@H](C(C)C)N2C
II: CCCCCCCCCCc1ccc2c(c1)C[C@@H](CO)OC(=O)[C@H](C(C)C)N2C
Compare pKi: is it lower for I or for II ? Lab note: record the label of whichever item you select.
II

---

target: Protein kinase C gamma type (Homo sapiens); assay: Inhibition of [3H]phorbol-12,13-dibutyrate (PDBu) binding to Protein kinase C gamma C1b domain
MEASURED_PARAMETER: Ki (µM)

1: CCCCCCCCCCc1ccc2c(c1)C[C@@H](CO)OC(=O)[C@H](C(C)C)N2C
2: CCCCCCCCCCc1ccc2c(c1)C[C@@H](CO)NC(=O)[C@H](C(C)C)N2C
Between the entries labelled 1 and 2 , which has a larger Ki value on record? Lab note: record the label of whichever item you select.
1

---

target: Protein kinase C beta type (Homo sapiens, UniProt P05771); experiment: Inhibition of [3H]phorbol-12,13-dibutyrate (PDBu) binding to Protein kinase C beta C1a
Sequence (P05771 whole entry, the tested form may be a part): as the sequence (P05771 whole entry, looked up, the tested form may be a part) above
MEASURED_PARAMETER: Ki (nM)
Report the figure in nM without appending any unit label.

Tell me the measured Ki of CCCCCCCCCCc1ccc2c(c1)C[C@@H](CO)NC(=O)[C@H](C(C)C)N2C , please.
442

---

biological target: Protein kinase C epsilon type (Homo sapiens, UniProt Q02156); assay: Inhibition of [3H]phorbol-12,13-dibutyrate (PDBu) binding to Protein kinase C epsilon C1b domain
Sequence (Q02156 whole entry, the tested form may be a part): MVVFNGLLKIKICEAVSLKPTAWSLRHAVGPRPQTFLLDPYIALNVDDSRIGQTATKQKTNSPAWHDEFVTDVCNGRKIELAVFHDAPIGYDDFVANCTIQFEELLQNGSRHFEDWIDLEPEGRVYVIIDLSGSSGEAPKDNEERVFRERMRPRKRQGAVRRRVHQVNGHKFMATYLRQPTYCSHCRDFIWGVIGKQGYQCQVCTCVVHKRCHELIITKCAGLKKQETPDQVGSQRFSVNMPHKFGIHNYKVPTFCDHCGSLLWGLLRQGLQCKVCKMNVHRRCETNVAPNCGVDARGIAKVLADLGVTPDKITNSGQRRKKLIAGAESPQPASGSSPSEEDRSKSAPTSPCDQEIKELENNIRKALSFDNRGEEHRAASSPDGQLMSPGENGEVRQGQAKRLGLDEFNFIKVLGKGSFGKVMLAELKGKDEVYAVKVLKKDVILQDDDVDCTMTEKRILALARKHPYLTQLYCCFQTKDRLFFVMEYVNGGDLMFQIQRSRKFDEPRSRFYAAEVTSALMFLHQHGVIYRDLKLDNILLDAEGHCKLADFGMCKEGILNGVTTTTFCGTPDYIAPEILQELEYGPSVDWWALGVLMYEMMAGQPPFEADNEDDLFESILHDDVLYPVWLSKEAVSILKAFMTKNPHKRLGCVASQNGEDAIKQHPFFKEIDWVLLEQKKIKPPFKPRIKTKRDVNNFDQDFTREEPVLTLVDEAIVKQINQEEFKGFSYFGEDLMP
MEASURED_PARAMETER: Ki (nM)

P: CCCCCCCCCCc1ccc2c(c1)C[C@@H](CO)NC(=O)[C@H](C(C)C)N2C
Q: CCCCCCCCCCc1ccc2c(c1)C[C@@H](CO)OC(=O)[C@H](C(C)C)N2C
Compare Ki: is it lower for P or for Q ? Lab note: record the label of whichever item you select.
P
(P: 13.1 nM, Q: 262 nM)

---

target: Protein kinase C alpha type (Homo sapiens); assay: Inhibition of [3H]phorbol-12,13-dibutyrate (PDBu) binding to Protein kinase C alpha C1a domain
MEASURED_PARAMETER: pKi
The value called pKi is obtained by taking minus log10 of the concentration in mol/L.

// fetch Protein kinase C alpha type (Homo sapiens) pKi for CCCCCCCCCCc1ccc2c(c1)C[C@@H](CO)NC(=O)[C@H](C(C)C)N2C
6.49
